What IC50 was measured for each of the following?
Target: HIV-1 RT WT (Human immunodeficiency virus type 1 group M subtype B, UniProt P03366)
Construct: mutations that occur in the reverse transcriptase segment of the pol gene
Assay: Reverse Transcriptase (RT) assay, wild type

# annotated cases, reported IC50 shown
| Compound | IC50 |
| --- | --- |
| CCN1c2ncc(CCOc3cccc4c3CN(Cc3ccncc3)C4=O)cc2C(=O)N(C)c2cccnc21 [Entry 104] | < 50 nM |
| CCN1c2ncc(CCOc3ccc4on(C(C)(C)C)c(=O)c4c3)cc2C(=O)Nc2c(C)cc(F)nc21 [Entry 129] | 50 to 100 nM |
| CCN1c2ncc(CCOc3cccc4c3CNC(=O)N4CC(=O)O)cc2C(=O)N(C)c2cccnc21 [Entry 118] | < 50 nM |
| CCN1c2ncc(CCOc3cccc4c3CNC4=O)cc2C(=O)N(C)c2cccnc21 [Entry 101] | < 50 nM |
| CCN1c2ncc(CCOc3cccc4c3COC(=O)N4)cc2C(=O)Nc2c(C)ccnc21 [Entry 127] | < 50 nM |
| CCN1c2ncc(CCOc3ccc4c(c3)COC(=O)N4)cc2C(=O)N(C)c2cccnc21 [Entry 133] | < 50 nM |
| CCN1c2ncc(CCOc3cccc4c3CNC4=O)cc2C(=O)Nc2c(C)ccnc21 [Entry 102] | < 50 nM |

Provide HIV-1 RT WT (Human immunodeficiency virus type 1 group M subtype B, UniProt P03366) IC50 reading for CCN1C(=O)c2cc(CCOc3cccc4c3CNC(=O)N4)cnc2N(CC)c2ncccc21 [Entry 117] .
< 50 nM
